system_under_test: F508delCFTR (Homo sapiens, UniProt P13569, DEL508-508)
Construct: expressed in transfected cells; host or cells: CFBE41o- (human lung derived epithelial cell line), doxycycline-inducible expression
Sequence (P13569 with tags, fused parts or gaps DEL508-508): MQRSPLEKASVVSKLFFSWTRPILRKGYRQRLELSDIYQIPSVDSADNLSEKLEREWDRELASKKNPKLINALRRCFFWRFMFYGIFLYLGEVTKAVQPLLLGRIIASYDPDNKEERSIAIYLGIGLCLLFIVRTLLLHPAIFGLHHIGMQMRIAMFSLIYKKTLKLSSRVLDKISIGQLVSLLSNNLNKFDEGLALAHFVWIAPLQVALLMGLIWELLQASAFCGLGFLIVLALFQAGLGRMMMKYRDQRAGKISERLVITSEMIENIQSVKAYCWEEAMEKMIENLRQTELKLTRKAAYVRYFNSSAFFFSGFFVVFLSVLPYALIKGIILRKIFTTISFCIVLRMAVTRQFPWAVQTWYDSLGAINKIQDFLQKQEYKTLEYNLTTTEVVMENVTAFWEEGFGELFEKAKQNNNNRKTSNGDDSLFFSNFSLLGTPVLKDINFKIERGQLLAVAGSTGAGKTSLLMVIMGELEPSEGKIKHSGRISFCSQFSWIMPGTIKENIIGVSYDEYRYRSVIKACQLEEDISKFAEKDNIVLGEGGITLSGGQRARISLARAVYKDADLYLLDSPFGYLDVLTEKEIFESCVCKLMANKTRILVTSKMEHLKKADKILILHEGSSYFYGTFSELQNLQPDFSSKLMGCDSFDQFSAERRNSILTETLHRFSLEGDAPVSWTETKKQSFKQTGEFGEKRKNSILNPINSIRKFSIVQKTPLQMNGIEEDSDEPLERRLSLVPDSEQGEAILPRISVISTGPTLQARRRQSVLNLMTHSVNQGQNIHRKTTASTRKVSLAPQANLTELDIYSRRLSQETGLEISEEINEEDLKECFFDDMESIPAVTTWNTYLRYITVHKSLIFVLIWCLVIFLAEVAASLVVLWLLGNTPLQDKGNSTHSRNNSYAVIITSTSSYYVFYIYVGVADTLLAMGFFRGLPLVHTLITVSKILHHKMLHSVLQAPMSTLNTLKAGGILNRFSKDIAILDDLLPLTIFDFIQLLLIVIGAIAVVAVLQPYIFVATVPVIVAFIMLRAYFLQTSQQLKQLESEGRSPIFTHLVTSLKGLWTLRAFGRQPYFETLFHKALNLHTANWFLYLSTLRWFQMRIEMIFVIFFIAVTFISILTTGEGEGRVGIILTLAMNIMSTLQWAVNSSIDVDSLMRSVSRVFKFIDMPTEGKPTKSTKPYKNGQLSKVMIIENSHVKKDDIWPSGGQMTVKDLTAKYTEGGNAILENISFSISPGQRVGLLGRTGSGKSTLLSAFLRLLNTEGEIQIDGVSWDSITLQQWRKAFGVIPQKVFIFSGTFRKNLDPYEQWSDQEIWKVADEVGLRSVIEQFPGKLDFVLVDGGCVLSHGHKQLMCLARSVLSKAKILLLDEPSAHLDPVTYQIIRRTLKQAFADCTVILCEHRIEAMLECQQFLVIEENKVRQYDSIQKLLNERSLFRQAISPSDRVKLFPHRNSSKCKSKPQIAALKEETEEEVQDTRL
experiment_notes: Cell Surface Expression-Horse Radish Peroxidase (CSE-HRP) assay
Format: cell-based
settings: CFBE41o-F508delCFTR-HRP cells; test compound without co-corrector; 18-24 hours at 33° C.; read-out: EC50 (without co-corrector)
pEC50: −log10 of the molar value.
measurement_type: pEC50

Example entries begin here.
COc1ncc(C(F)(F)F)cc1CO[C@H]1[C@H](C(C)(C)C)[C@@H](C(=O)O)N(C(=O)[C@@H]2CCCCO2)[C@H]1c1ccccc1-c1ccc(=O)n(C)c1: < 5.00
COc1ccc(Br)cc1CO[C@H]1[C@H](C(C)(C)C)[C@@H](C(=O)O)N(C(=O)OC(C)C)[C@H]1c1ccccc1: 5.00 to 6.00
CCS(=O)(=O)NC(=O)[C@@H]1[C@@H](C(C)(C)C)[C@H](OCc2cc(C(F)(F)F)ccc2OC)[C@H](c2ccccc2)N1C(=O)C1CCCCC1: < 5.00

Challenge: // lookup pEC50 | system=F508delCFTR (Homo sapiens, UniProt P13569, DEL508-508) | key= COc1ncc(C(F)(F)F)cc1CO[C@H]1[C@H](C(C)(C)C)[C@@H](C(=O)O)N(C(=O)[C@@H]2CCCO2)[C@H]1c1ccccc1C1CC1
Response given: 5.00 to 6.00

Challenge: API: value(readout= pEC50, system= F508delCFTR (Homo sapiens, UniProt P13569, DEL508-508), query= COc1ccc(C(C)(C)C)cc1CO[C@H]1[C@H](C(C)(C)OC)[C@@H](C(=O)O)N(C(=O)[C@@H]2CCCCO2)[C@H]1c1ccccc1C(C)C )
Response given: > 6.00

Challenge: Request body: readout pEC50, system F508delCFTR (Homo sapiens, UniProt P13569, DEL508-508), query COc1ncc(C2CCC2)cc1CO[C@H]1[C@H](C(C)(C)C)[C@@H](C(=O)O)N(C(=O)OC(C)C)[C@H]1c1ccccc1C1CC1 . Return the value.
Response given: 5.00 to 6.00

====

system_under_test: F508delCFTR (Homo sapiens, UniProt P13569, DEL508-508)
Construct: expressed in transfected cells; host or cells: CFBE41o- (human lung derived epithelial cell line), doxycycline-inducible expression
experiment_notes: Cell Surface Expression-Horse Radish Peroxidase (CSE-HRP) assay;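 as to Maximum % activity (with co-corrector): % of on-plate positive control (2 µM of the co-corrector compound) after DMSO subtraction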
Format: cell-based
settings: CFBE41o-F508delCFTR-HRP cells; with co-corrector (2 μM); normalized to on-plate positive control; highest concentration 20 μM
measurement_type: Maximum % activity (with co-corrector)

COc1nc2ccccc2cc1CO[C@H]1[C@H](C(C)(C)C)[C@@H](C(=O)O)N(C(=O)[C@@H]2CCCO2)[C@H]1c1ccccc1C1CC1: +++ (≥350)
COc1ccccc1[C@H]1[C@@H](OCc2cc(C(F)(F)F)cnc2OC)[C@H](C(C)(C)C)[C@@H](C(=O)O)N1C(=O)[C@@H]1CCCCO1: +++ (≥350)
COc1ncc(C(F)(F)F)cc1CO[C@H]1[C@H](C(C)(C)C)[C@@H](C(=O)O)N(C(=O)[C@@H]2CCCCO2)[C@H]1c1cccc(C(C)(C)C)c1: +++ (≥350)
COc1ccc(C(C)(C)C)cc1CO[C@H]1[C@H](C(C)(C)OC)[C@@H](C(=O)O)N(C(=O)[C@@H]2CCCCO2)[C@H]1c1ccccc1C(C)C: +++ (≥350)

--- query ---
Challenge: Maximum % activity (with co-corrector) lookup needed for COc1ncc(C2CCC2)cc1CO[C@H]1[C@H](C(C)(C)C)[C@@H](C(=O)O)N(C(=O)OC(C)C)[C@H]1c1ccccc1Br , thanks.
Response given: +++ (≥350)
